Would you kindly list pEC50 for each of these molecules?
target: CLK2 (Homo sapiens); construct: purchased Thermo Fisher (Life Technologies), Z'-LYTE Kinase Assay Kits; assay: CLK2 kinase activity assay (Z-lyte, Ser/Thr 6 peptide); format: biochemical; details: recombinant CLK2 kinase, ATP 60 μM; read-out: EC50
Sequence (P49760 whole entry): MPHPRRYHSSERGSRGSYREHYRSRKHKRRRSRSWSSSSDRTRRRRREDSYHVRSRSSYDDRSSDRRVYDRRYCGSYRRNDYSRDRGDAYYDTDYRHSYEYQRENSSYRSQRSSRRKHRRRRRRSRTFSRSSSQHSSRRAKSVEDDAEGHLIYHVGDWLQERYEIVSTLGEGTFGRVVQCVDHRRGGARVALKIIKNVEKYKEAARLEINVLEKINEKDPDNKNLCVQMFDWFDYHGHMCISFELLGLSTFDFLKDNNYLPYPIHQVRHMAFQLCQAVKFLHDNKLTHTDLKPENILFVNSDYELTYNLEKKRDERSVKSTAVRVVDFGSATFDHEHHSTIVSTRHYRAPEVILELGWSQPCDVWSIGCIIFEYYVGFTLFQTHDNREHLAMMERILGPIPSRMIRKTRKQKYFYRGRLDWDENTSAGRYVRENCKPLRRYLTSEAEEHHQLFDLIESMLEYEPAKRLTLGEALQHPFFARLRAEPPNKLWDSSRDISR
Answers are plain numbers, as −log10 of the molar value.

Consider the worked cases shown below.
| Molecule | pEC50 |
| --- | --- |
| CN1CCC(Oc2ccc(C(=O)Nc3cc4cc(-c5cnn(C)c5)ccc4cn3)cc2)CC1 [Compound 68] | 9.22 |
| Cn1ncc(-c2ccc3cnc(NC(=O)c4cccc(CN5CCCC5)c4)cc3c2)c1CN1CCCCC1 [Compound 78] | 8.80 |
| Cc1n[nH]c2ncc(-c3cncc(OC[C@@H](N)Cc4ccccc4)n3)cc12 [Compound 4] | 8.70 |

Provide pEC50 for all items below, preserving their order.
1. Cc1ncc(-c2ccc3cnc(NC(=O)c4cnn(C5CCN(C)CC5)c4)cc3c2)o1 [Compound 83]
2. CN(C)Cc1cncc(-c2ccc3[nH]nc(-c4cc5c(-c6ccoc6)ccnc5[nH]4)c3c2)c1 [Compound 51]

Result string:
[8.54, 8.85]

----------
Would you kindly list EC50 for each of these compounds?
test system: pancreatic cancer (8 cell lines); experiment: CellTiter-Glo Viability Assay, pancreatic cancer; type: cell-based; conditions: Homo sapiens, BXPC-3; BxPC3 cell line; inhibition of cancer cell proliferation; read-out: Pancreatic cancer, EC50 BxPC3
Give bare numbers, in nM.

Consider the worked cases shown below.
| Compound | Test target | Unit symbol | EC50 |
| --- | --- | --- | --- |
| CN1CCN(c2cc(Nc3ncc4c(-c5ccc6ncccc6c5)c[nH]c4n3)ccn2)CC1 [Compound 67] | pancreatic cancer (8 cell lines) | nM | 660 |
| CN1CCC(Sc2ccc3cnc(NC(=O)c4ccnc(SC5CCN(C)CC5)c4)cc3c2)CC1 [Compound 88] | pancreatic cancer (8 cell lines) | nM | 1230 |
| [2H]c1c([2H])c([2H])c(/C=C/C(=O)Nc2cc3cc(-c4cncn4C)ccc3cn2)c([2H])c1[2H] [Compound 81] | pancreatic cancer (8 cell lines) | nM | 848 |

Provide EC50 for all items below, preserving their order.
1. COc1ccc(NC(=O)c2n[nH]c3ccc(-c4cncc(CN5CCCCC5)c4)cc23)cn1 [Compound 59]
2. Cn1ncc(-c2ccc3cnc(NC(=O)c4cccc(CN5CCCC5)c4)cc3c2)c1CN1CCCCC1 [Compound 78]
3. CN1CCN(c2cc(C(=O)Nc3cc4cc(-c5cnn(C)c5)c(F)cc4cn3)ccn2)CC1 [Compound 69]

Result string:
1: 1050; 2: 1110; 3: 918

----------
test system: liver cancer (3 cell lines); assay: CellTiter-Glo Viability Assay, liver cancer; assay type: cell-based; settings: Homo sapiens; PLC/PRF/5 cell line; inhibition of cancer cell proliferation; read-out: Liver cancer, EC50 PLC/PRF/5
Experimental readout: EC50

Consider the worked cases shown below.
| Given smiles | Experimental readout | Measured |
| --- | --- | --- |
| CN(C)Cc1cncc(-c2ccc3[nH]nc(-c4cc5c(-c6ccoc6)ccnc5[nH]4)c3c2)c1 | EC50 | > 10 µM |
| CN1CC=C(c2cc(C(=O)Nc3cc4cc(-c5cncc(NC(C)(C)C)n5)cnc4cn3)ccn2)CC1 | EC50 | > 10 µM |
| CS(=O)(=O)NCc1cc(F)cc(-c2nccc3[nH]c(-c4n[nH]c5ccc(-c6cncc(NC(=O)C7CCC7)c6)cc45)cc23)c1 | EC50 | > 10 µM |
| O=C(Nc1ccc(OCCN2CCCC2)cc1)c1n[nH]cc1/C=C/c1cccnc1 | EC50 | > 10 µM |
| c1cncc(-c2ccc3[nH]nc(-c4cc5c(-c6cccnc6)cncc5[nH]4)c3c2)c1 | EC50 | > 3.5 µM |

Let us examine a further case.
Query string: Please provide the recorded EC50 for O=C1CCc2cccc(c2)-c2cncc3[nH]c(nc23)-c2n[nH]c3ccc(cc23)-c2cncc(c2)N1 , tested on liver cancer (3 cell lines).
Result string: > 3.5 µM
